- System Name: Recombinant Human NF-kappaB-Inducing Kinase (NIK/MAP3K14) (Homo sapiens)
- Sequence (Q99558 whole entry): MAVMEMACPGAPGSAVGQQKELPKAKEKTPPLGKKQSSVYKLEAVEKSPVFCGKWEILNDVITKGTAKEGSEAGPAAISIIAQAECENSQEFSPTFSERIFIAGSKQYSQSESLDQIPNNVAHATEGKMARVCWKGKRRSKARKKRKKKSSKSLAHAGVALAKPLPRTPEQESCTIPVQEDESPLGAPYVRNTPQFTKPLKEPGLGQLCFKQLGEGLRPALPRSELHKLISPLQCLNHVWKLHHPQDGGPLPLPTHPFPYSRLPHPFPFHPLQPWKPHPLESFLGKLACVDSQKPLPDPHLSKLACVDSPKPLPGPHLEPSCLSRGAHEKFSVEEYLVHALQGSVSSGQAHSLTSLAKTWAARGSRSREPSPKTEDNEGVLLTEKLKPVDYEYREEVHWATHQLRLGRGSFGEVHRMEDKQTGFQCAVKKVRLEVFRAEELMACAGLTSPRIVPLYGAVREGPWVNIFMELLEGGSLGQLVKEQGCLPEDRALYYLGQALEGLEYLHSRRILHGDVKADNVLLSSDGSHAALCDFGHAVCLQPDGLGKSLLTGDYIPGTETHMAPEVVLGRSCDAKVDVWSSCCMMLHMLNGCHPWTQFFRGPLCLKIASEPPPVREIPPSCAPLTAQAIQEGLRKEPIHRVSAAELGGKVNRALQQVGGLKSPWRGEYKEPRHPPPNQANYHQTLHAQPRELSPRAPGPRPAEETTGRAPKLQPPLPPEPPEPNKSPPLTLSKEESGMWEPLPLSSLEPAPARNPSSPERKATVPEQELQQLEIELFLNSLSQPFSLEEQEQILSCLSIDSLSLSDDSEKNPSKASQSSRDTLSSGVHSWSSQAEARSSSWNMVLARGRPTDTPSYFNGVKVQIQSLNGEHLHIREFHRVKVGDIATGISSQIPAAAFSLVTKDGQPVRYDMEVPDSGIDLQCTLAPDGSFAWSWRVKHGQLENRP
- Protocol Description: Biological Assay A: inhibition of recombinant human NIK/MAP3K14 activity (MBP phosphorylation, Mesoscale)
- Format: biochemical
- Condition Set: averaged over all measurements on all batches; read-out: Biochemical (MSD MBP) IC50
pIC50: −log10 of the molar value.
Outcome Measure: pIC50

{"Compound": "CC(C)(O)C#Cc1cc2c(-c3ccnc(N)n3)cn(CCO)c2cn1", "pIC50": 8.13}
{"Compound": "CC(C)(O)Cn1cc(-c2nc(N)ncc2Cl)c2cc(C#CC3(O)CC3)ncc21", "pIC50": 7.74}
{"Compound": "COCCn1cc(-c2nc(N)ncc2F)c2cc(C#CC(C)(C)O)ncc21", "pIC50": 7.57}
{"Compound": "CC(C)(O)Cn1cc(-c2ccnc(N)n2)c2cc(C#CC(C)(O)c3ccccn3)ncc21 (centres unmarked)", "pIC50": 7.15}
{"Compound": "CC(C)n1cc(-c2ccnc(N)n2)c2cc(C#CCO)ncc21", "pIC50": 7.52}
{"Compound": "CC(C)n1cc(-c2nc(N)ncc2Cl)c2cc(C#CC(C)(O)c3nccs3)ncc21 (centres unmarked)", "pIC50": 8.31}
{"Compound": "CC(C)(O)C#Cc1cc2c(-c3nc(N)ncc3C#N)cn(CC(C)(C)O)c2cn1", "pIC50": 8.08}
{"Compound": "CC(C)(O)C#Cc1cc2c(-c3ccnc(N)n3)cn(CC3CCNCC3)c2cn1", "pIC50": 6.80}

P. CN(C)C(=O)CCn1cc(-c2ccnc(N)n2)c2cc(C#CC(C)(C)O)ncc21
Q. COCCn1cc(-c2nc(N)ncc2Cl)c2cc(C#CC(C)(C)O)ncc21
(Q) Identify the entry with the larger pIC50. Options: P and Q Indicate your choice by writing its label.
(A) Q
(Q: 8.00, P: 6.85)

====

- System Name: Recombinant Human NF-kappaB-Inducing Kinase (NIK/MAP3K14) (Homo sapiens)
- Protocol Description: Biological Assay A2: inhibition of auto-phosphorylation of recombinant human NIK/MAP3K14 (AlphaScreen)
- Format: biochemical
- Condition Set: auto-phosphorylation; averaged over all measurements on all batches; read-out: αscreen IC50
Outcome Measure: IC50 (nM)

Reference set, count: 5
{"Molecule": "CCNc1nccc(-c2c[nH]c3cnc(C#CC(C)(C)O)cc23)n1 [Compound 48]", "System Name": "Recombinant Human NF-kappaB-Inducing Kinase (NIK/MAP3K14) (Homo sapiens)", "Observed": 16}
{"Molecule": "CC(=O)NCCCn1cc(-c2ccnc(N)n2)c2cc(C#CC(C)(C)O)ncc21 [Compound 148]", "System Name": "Recombinant Human NF-kappaB-Inducing Kinase (NIK/MAP3K14) (Homo sapiens)", "Observed": 64}
{"Molecule": "COCCCn1cc(-c2nc(N)ncc2F)c2cc(C#CC(C)(O)c3cc(C)on3)ncc21 (centres unmarked) [Compound 91]", "System Name": "Recombinant Human NF-kappaB-Inducing Kinase (NIK/MAP3K14) (Homo sapiens)", "Observed": 12}
{"Molecule": "CN(C)C(=O)n1cc(-c2nc(N)ncc2F)c2cc(C#CC(C)(O)C3CC3)ncc21 (centres unmarked) [Compound 103]", "System Name": "Recombinant Human NF-kappaB-Inducing Kinase (NIK/MAP3K14) (Homo sapiens)", "Observed": 13}
{"Molecule": "CCN1CCC(n2cc(-c3nc(N)ncc3F)c3cc(C#CC(C)(C)O)ncc32)CC1 [Compound 85]", "System Name": "Recombinant Human NF-kappaB-Inducing Kinase (NIK/MAP3K14) (Homo sapiens)", "Observed": 33}

a. CN1CCN(C(=O)n2cc(-c3nc(N)ncc3F)c3cc(C#CC(C)(O)C4CC4)ncc32)CC1 (centres unmarked) [Compound 134]
b. CC(C)(O)C#Cc1cc2c(-c3ccnc(N)n3)cn(CCO)c2cn1 [Compound 12]
(Q) Of a and b , whose reported IC50 is numerically smaller? Indicate your choice by writing its label.
(A) b

Recorded values, source patent US9643964B2.
